# Assayed system: Adrenergic β2 (H292 cells) (Homo sapiens, UniProt P07550)
# Construct: endogenous in cells; host or cells: H292 cells
# Sequence (P07550 whole entry): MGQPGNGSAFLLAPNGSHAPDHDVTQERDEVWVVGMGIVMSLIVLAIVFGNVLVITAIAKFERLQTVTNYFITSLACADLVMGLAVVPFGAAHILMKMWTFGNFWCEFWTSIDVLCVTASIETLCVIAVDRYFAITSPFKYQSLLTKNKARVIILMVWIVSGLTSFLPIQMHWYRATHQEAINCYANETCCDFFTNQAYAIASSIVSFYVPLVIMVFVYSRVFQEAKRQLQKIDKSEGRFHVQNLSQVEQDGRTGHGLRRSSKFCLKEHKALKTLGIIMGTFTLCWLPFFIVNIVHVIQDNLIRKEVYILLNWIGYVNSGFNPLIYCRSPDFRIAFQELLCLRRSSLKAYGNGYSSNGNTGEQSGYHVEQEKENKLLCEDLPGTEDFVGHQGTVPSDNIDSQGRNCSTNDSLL
# Method notes: Adrenergic β2 Mediated cAMP Production, single concentration 1 μM
# Type: cell-based
# Condition context: NCI-H292, 1 μM compound, percentage of the maximum response generated by 1E-07M formoterol, read-out: β2 (% effect at 1 μM)

- Compound: "O=C(c1c[nH]c2ccccc12)N1CCOC2(CCN(Cc3cc(F)cc(CCNC[C@H](O)c4ccc(O)c5[nH]c(=O)sc45)c3)CC2)C1 [Example 137]"
  activation at 1 µM / %: 112
- Compound: "Cc1csc(C(=O)N2CCOC3(CCN(CCOc4ccc(CNC[C@H](O)c5ccc(O)c6[nH]c(=O)sc56)cc4)CC3)C2)c1 [Example 254]"
  activation at 1 µM / %: 71
- Compound: "Cc1n[nH]c(CC(=O)N2CCOC3(CCN(Cc4cc(F)cc(CCNC[C@H](O)c5ccc(O)c6[nH]c(=O)sc56)c4)CC3)C2)n1 [Example 134]"
  activation at 1 µM / %: 116
- Compound: "Cc1ccn(CC(=O)N2CCOC3(CCN(CCCCCCCCCNC[C@H](O)c4ccc(O)c5[nH]c(=O)sc45)CC3)C2)n1 [Example 204]"
  activation at 1 µM / %: 101
- Compound: "Cc1cccc(C(=O)N2CCOC3(CCN(CCCCCCCCCNC[C@H](O)c4ccc(O)c5[nH]c(=O)sc45)CC3)C2)n1 [Example 196]"
  activation at 1 µM / %: 89
- Compound: "O=C(CCc1cccs1)N1CCOC2(CCN(CCOc3ccc(CNC[C@H](O)c4ccc(O)c5[nH]c(=O)sc45)cc3)CC2)C1 [Example 248]"
  activation at 1 µM / %: 70
- Compound: "Cc1nonc1C(=O)N1CCOC2(CCN(Cc3cc(F)cc(CCNC[C@H](O)c4ccc(O)c5[nH]c(=O)sc45)c3)CC2)C1 [Example 151]"
  activation at 1 µM / %: 98
- Compound: "O=C(c1ccc2ncsc2c1)N1CCOC2(CCN(Cc3cc(F)cc(CCNC[C@H](O)c4ccc(O)c5[nH]c(=O)sc45)c3)CC2)C1 [Example 132]"
  activation at 1 µM / %: 92
- Compound: "O=C(COc1ccccc1)N1CCOC2(CCN(CCOc3ccc(CNC[C@H](O)c4ccc(O)c5[nH]c(=O)sc45)cc3)CC2)C1 [Example 240]"
  activation at 1 µM / %: 92
- Compound: "O=C(c1cnc2ccccc2c1)N1CCOC2(CCN(Cc3cc(F)cc(CCNC[C@H](O)c4ccc(O)c5[nH]c(=O)sc45)c3)CC2)C1 [Example 172]"
  activation at 1 µM / %: 98
- Compound: "O=C(CCn1cncn1)N1CCOC2(CCN(Cc3cc(F)cc(CCNC[C@H](O)c4ccc(O)c5[nH]c(=O)sc45)c3)CC2)C1 [Example 164]"
  activation at 1 µM / %: 99
- Compound: "O=C(c1ccc2cc[nH]c2c1)N1CCOC2(CCN(Cc3cc(F)cc(CCNC[C@H](O)c4ccc(O)c5[nH]c(=O)sc45)c3)CC2)C1 [Example 140]"
  activation at 1 µM / %: 109
- Compound: "O=C(Cc1ccc(-c2ccccc2)cc1)N1CCOC2(CCN(Cc3cc(F)cc(CCNC[C@H](O)c4ccc(O)c5[nH]c(=O)sc45)c3)CC2)C1 [Example 123]"
  activation at 1 µM / %: 97
